Target: estrogen receptor-alpha (ERα) (Homo sapiens, UniProt P03372)
Sequence (P03372 311-547 limits assumed): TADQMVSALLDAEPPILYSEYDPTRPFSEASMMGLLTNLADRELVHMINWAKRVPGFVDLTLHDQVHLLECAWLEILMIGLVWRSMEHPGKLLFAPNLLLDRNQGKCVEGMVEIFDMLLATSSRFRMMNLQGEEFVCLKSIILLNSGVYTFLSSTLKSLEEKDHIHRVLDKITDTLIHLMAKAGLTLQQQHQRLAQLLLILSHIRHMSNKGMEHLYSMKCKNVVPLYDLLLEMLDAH
Assay endpoint: pKd
pKd is a log-scale quantity: -log10 of the concentration expressed in molar.

Recorded pKd for Cc1cc(O)cc2oc3cc(O)cc(O)c3c(=O)c12 , please? 8.00
